target: Cathepsin K (Homo sapiens, UniProt P43235); assay: Inhibition of recombinant human cathepsin K using Z-Leu-Arg-AMC as substrate measured after 20 mins
Sequence (P43235 whole entry): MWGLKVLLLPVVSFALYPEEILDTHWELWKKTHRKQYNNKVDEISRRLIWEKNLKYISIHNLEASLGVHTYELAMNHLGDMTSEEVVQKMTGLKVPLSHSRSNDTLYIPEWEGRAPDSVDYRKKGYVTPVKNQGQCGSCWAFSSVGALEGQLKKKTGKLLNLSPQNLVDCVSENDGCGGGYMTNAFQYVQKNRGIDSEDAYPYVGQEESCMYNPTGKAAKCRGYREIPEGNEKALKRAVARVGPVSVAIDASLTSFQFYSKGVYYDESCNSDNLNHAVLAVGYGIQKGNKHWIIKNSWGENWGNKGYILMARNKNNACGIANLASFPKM
Exercise: state measured Ki for each of the molecules provided.

Ask: Report Ki, nothing else, for this molecule: C[C@@H](OCc1ccccc1)[C@@H](C#N)NC(=O)[C@H](Cc1cccc(Cl)c1)NC(=O)c1cccc(-c2cncnc2)c1
Result: > 10 µM

Ask: Find the measured Ki of C[C@@H](OCc1ccccc1)[C@@H](C#N)NC(=O)[C@H](Cc1cccc(Br)c1)NC(=O)c1ccc(-c2cncnc2)cc1 and report it.
Result: 5.01 µM

Ask: Find the measured Ki of C[C@@H](OCc1ccccc1)[C@@H](C#N)NC(=O)[C@H](Cc1cccc(Br)c1)NC(=O)c1cc(C(C)(C)C)nn1C and report it.
Result: 2.51 µM

Ask: Supply Ki value. Item: C[C@@H](OCc1ccccc1)[C@@H](C#N)NC(=O)[C@H](Cc1cccc(Br)c1)NC(=O)Cc1ccc(-c2ccccc2)cc1
Result: > 10 µM

Ask: Supply Ki value. Item: C[C@@H](OCc1ccccc1)[C@@H](C#N)NC(=O)[C@H](Cc1cccc(Cl)c1)NC(=O)c1cccc(-c2cccnc2)c1
Result: > 10 µM

Ask: Identify measured Ki associated with C[C@@H](OCc1ccccc1)[C@@H](C#N)NC(=O)[C@H](Cc1cccc(Br)c1)NC(=O)c1cccc(-c2cccnc2)c1
Result: > 10 µM

Ask: // fetch Ki given entry C[C@@H](OCc1ccccc1)[C@@H](C#N)NC(=O)[C@H](Cc1c[nH]c2ccccc12)NC(=O)c1ccc(-c2ccccc2)cc1
Result: > 10 µM

---

target: Procathepsin L (Homo sapiens, UniProt P07711)
Sequence (P07711 whole entry): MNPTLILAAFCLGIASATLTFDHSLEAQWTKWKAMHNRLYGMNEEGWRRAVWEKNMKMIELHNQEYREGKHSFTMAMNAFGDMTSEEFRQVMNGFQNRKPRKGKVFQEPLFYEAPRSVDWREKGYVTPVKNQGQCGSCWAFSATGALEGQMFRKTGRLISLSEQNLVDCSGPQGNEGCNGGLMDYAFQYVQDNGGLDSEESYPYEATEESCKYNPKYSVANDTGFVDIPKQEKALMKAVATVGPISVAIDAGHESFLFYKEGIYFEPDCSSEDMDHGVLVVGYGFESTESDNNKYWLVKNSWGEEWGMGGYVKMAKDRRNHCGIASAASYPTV
Exercise: for every item that follows, state its recorded Ki.
// units = µM; emit number, no label

Ask: Print Procathepsin L (Homo sapiens, UniProt P07711) Ki for C[C@@H](OCc1ccccc1)[C@@H](C#N)NC(=O)[C@H](Cc1cccc(Cl)c1)NS(=O)(=O)c1cccc(Br)c1 .
Result: 0.000251

Ask: Provide measured Ki on Procathepsin L (Homo sapiens, UniProt P07711) for C[C@@H](OCc1ccccc1)[C@@H](C#N)NC(=O)[C@H](Cc1cccc(Cl)c1)NC(=O)c1cccc(-c2cncnc2)c1 please.
Result: 0.02

Ask: Look up and report Ki, with Procathepsin L (Homo sapiens, UniProt P07711) as system, for C[C@@H](OCc1ccccc1)[C@@H](C#N)NC(=O)[C@H](Cc1cccc(Br)c1)NC(=O)c1ccc(-c2cccnc2)cc1
Result: 0.02

Ask: Give reported Ki for C[C@@H](OCc1ccccc1)[C@@H](C#N)NC(=O)[C@H](Cc1cccc(Cl)c1)NS(=O)(=O)c1cccc(-c2ccccc2)c1 (Procathepsin L (Homo sapiens, UniProt P07711))
Result: 0.2

Ask: Output reported Ki of the compound C[C@@H](OCc1ccccc1)[C@@H](C#N)NC(=O)[C@H](Cc1cccc(Cl)c1)NC(=O)c1ccc(Br)cc1 on Procathepsin L (Homo sapiens, UniProt P07711).
Result: 0.00794

---

Below are Ki values measured for Cathepsin B (Homo sapiens, UniProt P07858).
Expressed in nM, but write only the number.

Ask: Give Ki for the following compound: C[C@@H](OCc1ccccc1)[C@@H](C#N)NC(=O)[C@H](Cc1cccc(Cl)c1)NC(=O)c1cccc(Br)c1
Result: 63.1

Ask: Specify measured Ki for C[C@@H](OCc1ccccc1)[C@@H](C#N)NC(=O)[C@H](Cc1cccc(Br)c1)NC(=O)c1ccc(-c2ccccc2)cc1 .
Result: 50.1

Ask: Please indicate Ki recorded for C[C@@H](OCc1ccccc1)[C@@H](C#N)NC(=O)[C@H](Cc1cccc(Br)c1)NC(=O)c1cc(C(C)(C)C)nn1C
Result: 158

---

biological target: Cathepsin B (Homo sapiens); assay: Inhibition of human cathepsin B at pH 4.5 using Z-Phe-Arg-AMC fluorogenic peptide as substrate preincubated for 2 mins followed by substrate addition and measured for 5 mins by fluorescence assay
I'd be grateful if you could share measured IC50 for these entries.
The figure you give is taken to be in nM; do not add the unit.

Ask: Please look at this compound and report its IC50: C[C@@H](OCc1ccccc1)[C@@H](C#N)NC(=O)[C@H](Cc1cccc(Br)c1)NC(=O)c1ccc(-c2ccccc2)cc1
Result: 39.4

Ask: Identify the reported IC50 for the following entry. C[C@@H](OCc1ccccc1)[C@@H](C#N)NC(=O)[C@H](Cc1cccc(Cl)c1)NC(=O)c1cccc(-c2cccnc2)c1
Result: 33.1

Ask: Query IC50 for C[C@@H](OCc1ccccc1)[C@@H](C#N)NC(=O)[C@H](Cc1cccc(Cl)c1)NC(=O)c1ccc(-c2ccccc2)cc1
Result: 42.3

---

observation_type: Ki (nM)
Provide the reading as a plain figure in nM.

Ask: Using Cathepsin S (Homo sapiens, UniProt P25774) as the test system, report measured Ki of C[C@@H](OCc1ccccc1)[C@@H](C#N)NC(=O)[C@H](Cc1c[nH]c2ccccc12)NC(=O)c1ccc(-c2ccccc2)cc1 .
Result: 158

Ask: State recorded Ki with Cathepsin S (Homo sapiens, UniProt P25774), entry C[C@@H](OCc1ccccc1)[C@@H](C#N)NC(=O)[C@H](Cc1cccc(Br)c1)NC(=O)c1cccc(-c2cccnc2)c1 , no comment.
Sequence (P25774 whole entry): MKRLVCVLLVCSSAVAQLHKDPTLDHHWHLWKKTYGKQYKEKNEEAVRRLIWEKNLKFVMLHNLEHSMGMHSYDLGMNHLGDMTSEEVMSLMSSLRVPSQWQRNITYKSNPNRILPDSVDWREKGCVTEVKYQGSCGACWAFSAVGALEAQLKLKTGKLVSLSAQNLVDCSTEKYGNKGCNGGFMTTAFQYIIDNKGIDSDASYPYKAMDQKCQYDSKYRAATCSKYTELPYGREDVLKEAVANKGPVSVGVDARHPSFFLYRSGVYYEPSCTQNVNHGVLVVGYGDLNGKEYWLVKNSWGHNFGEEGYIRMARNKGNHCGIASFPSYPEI
Result: 20

Ask: With Cathepsin S (Homo sapiens, UniProt P25774) as the test system, provide measured Ki for this molecule: C[C@@H](OCc1ccccc1)[C@@H](C#N)NC(=O)[C@H](Cc1cccc(Cl)c1)NC(=O)c1ccc(-c2cncnc2)cc1
Result: 63.1

Ask: Under Cathepsin S (Homo sapiens, UniProt P25774), report Ki for C[C@@H](OCc1ccccc1)[C@@H](C#N)NC(=O)[C@H](Cc1cccc(Cl)c1)NC(=O)c1ccc(-c2ccccc2)cc1
Result: 79.4

---

molecular target: Cathepsin K (Homo sapiens, UniProt P43235); experiment: Inhibition of recombinant human cathepsin K using Z-Leu-Arg-AMC as substrate measured after 20 mins
Exercise: state measured log10(Ki) for each of the compounds provided.
Lab note - Ki converted to log10 from values in µM.

Ask: Recall the reported log10(Ki) of C[C@@H](OCc1ccccc1)[C@@H](C#N)NC(=O)[C@H](Cc1cccc(Cl)c1)NC(=O)c1ccc(-c2ccccc2)cc1 on Cathepsin K (Homo sapiens, UniProt P43235) and write it down.
Result: 0.20

Ask: Please look at C[C@@H](OCc1ccccc1)[C@@H](C#N)NC(=O)[C@H](Cc1cccc(Cl)c1)NC(=O)c1cccc(Br)c1 and tell me its recorded log10(Ki) on Cathepsin K (Homo sapiens, UniProt P43235).
Result: 0.60

Ask: Specify the recorded log10(Ki) for C[C@@H](OCc1ccccc1)[C@@H](C#N)NC(=O)[C@H](Cc1cccc(Cl)c1)NC(=O)c1ccc(Br)cc1 , system: Cathepsin K (Homo sapiens, UniProt P43235).
Result: 0.70

Ask: Enter log10(Ki) (test system Cathepsin K (Homo sapiens, UniProt P43235)) for C[C@@H](OCc1ccccc1)[C@@H](C#N)NC(=O)[C@H](Cc1cccc(Cl)c1)NC(=O)c1ccc(-c2cncnc2)cc1
Result: 0.80

Ask: With Cathepsin K (Homo sapiens, UniProt P43235) as the test system, provide measured log10(Ki) for this compound: C[C@@H](OCc1ccccc1)[C@@H](C#N)NC(=O)[C@H](Cc1cccc(Cl)c1)NS(=O)(=O)c1ccc(-c2ccccc2)cc1
Result: 1.00

Ask: Give log10(Ki) only, for C[C@@H](OCc1ccccc1)[C@@H](C#N)NC(=O)[C@H](Cc1cccc(Cl)c1)NS(=O)(=O)c1cccc(Br)c1 , using Cathepsin K (Homo sapiens, UniProt P43235) data.
Result: -0.20

---

observation_type: pKi
# pKi = -log10(concentration in molar units)

Ask: Fill in pKi for C[C@@H](OCc1ccccc1)[C@@H](C#N)NC(=O)[C@H](Cc1c[nH]c2ccccc12)NC(=O)c1ccc(-c2ccccc2)cc1 tested with UniProt:P07858.
Result: 7.30

Ask: GET pKi where system = UniProt:P07858 and item = C[C@@H](OCc1ccccc1)[C@@H](C#N)NC(=O)[C@H](Cc1cccc(Cl)c1)NC(=O)c1cccc(-c2cccnc2)c1
Result: 8.30

Ask: Report pKi on UniProt:P07858 for this entry: C[C@@H](OCc1ccccc1)[C@@H](C#N)NC(=O)[C@H](Cc1cccc(Cl)c1)NC(=O)c1cccc(-c2ccccc2)c1
Result: 6.90

Ask: Give measured pKi for C[C@@H](OCc1ccccc1)[C@@H](C#N)NC(=O)[C@H](Cc1cccc(Cl)c1)NC(=O)c1ccc(Br)cc1 (UniProt:P07858).
Result: 7.90

Ask: # return pKi for C[C@@H](OCc1ccccc1)[C@@H](C#N)NC(=O)[C@H](Cc1cccc(Cl)c1)NC(=O)c1ccc(-c2ccccc2)cc1 , test system: UniProt:P07858
Result: 7.50
